# assaySummary: NCI Yeast Anticancer Drug Screen. Data for the mec2-1 strain (AID 157)
# measurementConditions: S. cerevisiae mec2-1 strain, at 50.0 µM (retest, dose inferred, filed as 5.0)
About 79,000 compounds went through this panel and 15% of them were active in at least one assay; those are over-represented in the sample as a whole. Activity calls are given as the source filed them. Rule as the data show it: active = growth inhibition above about 70%; inactive = the rest.
Outcome codes: Y (active), N (inactive)

molecule	category
CC(/C=C/C(O)=C1/C(=O)CNC1=O)=C\[C@@H](C)[C@H]1O[C@@]2(C)O[C@H](C(=O)[C@@H]3O[C@@]32C)[C@@H]1C	Y
O=C1CCC/C1=C\c1ccccc1	N
CCN(C(C)=O)c1cnc(/C=N/NC(N)=S)c2ccccc12	N
O=C(c1ccc(Cl)cc1)C1N=NCC1c1ccccc1 (configuration not stated)	N
Cc1ncc(Br)c(C(=O)O)n1	N
CCCCCCCCCCCCNCc1ccc2c(c1)OCO2	Y
Cc1cccc(C)c1NC(=O)CSC(N)=O	N
CC(/C=C/c1ccc(Cl)cc1)=N\NC(N)=S	N
CN1CCCCC1c1cc2c3ccccc3ccn2c1-c1ccccc1 (configuration not stated)	Y
CC(O)(CO)CC(C)(O)CO (configuration not stated)	N
COc1ccc2c(c1)N=C(N)n1c(nc3ccccc31)S2	N
C/C=C/C(=O)NCC(C(C)C)/[N+]([O-])=N/O (configuration not stated)	Y
O=S(=O)(Sc1ccccc1)C(c1ccccc1)c1ccccc1	Y
CCCCCCCCCCCCCCC(=O)OCC[N+](C)(C)C	Y
O=C(O)C(Br)C(Br)C(=O)Nc1ccc(Cl)c(Cl)c1 (configuration not stated)	Y
Cc1ccc(OS(=O)(=O)c2ccc(Br)cc2)cc1	N
O=C(N/N=C/c1cc(Br)ccc1O)c1ccccc1	N
COc1ccc2c(c1)CCC(N1CCCC(O)C1)C2 (configuration not stated)	Y
O=C1c2ccc(Cl)cc2C(=O)c2cc(Cl)ccc21	Y
CCCCCCCCCCNC(=O)CBr	Y
O=C1CN(c2cccc(Cl)c2)C(=O)CN1/N=C/c1ccc[nH]1	N
Cc1ccc(O)c(C(c2cc(C)ccc2O)c2ccccc2Cl)c1	Y
NCC(CS)C(=O)NC(CS)C(=O)NC(CS)C(=O)NCCNc1ccc(NCCNC(=O)C(CS)NC(=O)C(CS)NC(=O)C(CN)CS)c2c1C(=O)c1c(O)ccc(O)c1C2=O (configuration not stated)	Y
CC1(c2ccccc2)OC(=O)C=CC1=O (configuration not stated)	Y
CCN(CC)CC(O)CNc1ccc(NCC(O)CCl)c2c1C(=O)c1ccccc1C2=O (configuration not stated)	Y
N#C/C(=C\NC(=S)C(N)=S)c1nc2ccccc2s1	Y
CN(C)c1nc(-c2ccccc2)cc(-c2ccc(O)cc2)n1	N
Cc1ccc(NC(=S)SCc2ccc3c(c2)OCO3)cc1Br	Y
Fc1ccc(NC(=S)SCc2ccccc2)cc1F	Y
CC1CC(=O)OC(C(=O)c2ccccc2)N1c1ccc(C(F)(F)F)cc1N (configuration not stated)	N
CCCCCc1[nH]nc(C(=O)OC)c1N=NN1CCOCC1	Y
C=C1C(=O)[C@@]23CC[C@H]4[C@@](C)(CCC[C@@]4(C)C(=O)OC)[C@@H]2CC[C@]1(O)C3	Y
O=S(=O)(Nc1ccc(NS(=O)(=O)c2ccccc2)c(N2N=N2)c1)c1ccccc1	Y
Nc1nc(-c2ccc(Cl)cc2)c(N=Nc2ccc(Br)cc2)s1	Y
Cc1ccc(C(C)C)c(O)c1N/N=C/c1cc(Cl)ccc1O	N
CCc1nc(N)nc(N)c1-c1ccc(NCCCCCCCCCCCCN)c([N+](=O)[O-])c1	Y
COc1ccc(-c2[nH]c(-c3ccc(OC)cc3)c(-c3ccccn3)c2-c2ccccn2)cc1	N
O=[N+]([O-])c1ccc(-c2cccc(Cl)c2)c([N+](=O)[O-])c1	Y
CCC(CC)=NNc1ccc([N+](=O)[O-])cc1	Y
CCN(CC)CCCC(=O)Nc1cc(OC)cc2cccnc12	N
CCCCc1c2c(nc3c1CCCC3O)/C(=C/c1ccccc1)CCC2 (configuration not stated)	N
Cc1cccc(Cl)c1NC(=S)Nc1cccc(C(F)(F)F)c1	N
CCCCCC(C)(O)C#CC(C)(O)CCCCC (configuration not stated)	Y
CNc1ccc([N+](=O)[O-])cc1	N
Oc1ccc(CC2CCC(O)CC2)cc1 (configuration not stated)	N
COc1cc(C(c2ccccc2)c2ccccc2)c2ccccc2c1O	N
COc1cc2c(c(-c3cn(C)c4ccccc34)c1OC)OCO2	N

Sourced from PubChem BioAssay (NCI)
